# tested_system: human Y4 receptor (Homo sapiens)
# Construct: expressed in transfected cells
# test_protocol: NPY4 cAMP HTRF Agonist Assay (inhibitory cAMP assay, Gi activation by Y4 agonism)
# Assay type: cell-based
# condition_description: TABLE 2, R2 is Phenyl-CN; read-out: hY4 CAMP EC50
quantity_measured: pEC50
Notebook: values listed as pEC50 are -log10 of the concentration (mol/L).

Example cases with answers are listed next.
>>> print(df.to_string())
                                   compound  quantity_measured  value_observed
0  CS(=O)(=O)NCc1cccc(-c2ccnc(N[C@@H]3CCCC[C@H]3N[C@H]3CCCN(c4ccc(C#N)cc4)C3)c2)c1              pEC50            7.62
1  N#Cc1ccc(N2CCC[C@H](N[C@@H]3CCCC[C@H]3Nc3cc(-c4cccc(C(F)(F)F)c4)ccn3)C2)cc1              pEC50            6.27
2  N#Cc1ccc(N2CCC[C@H](N[C@@H]3CCCC[C@H]3Nc3cc(-c4ccccc4OC(F)(F)F)ccn3)C2)cc1              pEC50            6.54

Look at this compound and give its reported pEC50. N#Cc1ccc(N2CC3CC2[C@@H](N[C@@H]2CCCC[C@H]2Nc2ncc(-c4ccc(OC(F)F)cc4)o2)C3)cc1 (stereo partly shown)
8.52

----------
# tested_system: human Y4 receptor (Homo sapiens, UniProt P50391)
# Construct: expressed in transfected cells
# Sequence (P50391 whole entry): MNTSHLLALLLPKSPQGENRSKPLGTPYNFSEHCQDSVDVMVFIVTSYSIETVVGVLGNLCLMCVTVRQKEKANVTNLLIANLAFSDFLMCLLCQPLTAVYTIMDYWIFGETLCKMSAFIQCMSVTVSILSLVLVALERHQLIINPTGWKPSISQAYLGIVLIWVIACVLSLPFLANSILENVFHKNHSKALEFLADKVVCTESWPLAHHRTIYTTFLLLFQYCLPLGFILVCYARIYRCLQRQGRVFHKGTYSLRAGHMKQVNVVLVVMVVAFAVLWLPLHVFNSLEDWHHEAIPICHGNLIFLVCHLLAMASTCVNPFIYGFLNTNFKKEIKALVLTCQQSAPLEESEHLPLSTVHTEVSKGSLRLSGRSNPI
# test_protocol: NPY4 cAMP HTRF Agonist Assay (inhibitory cAMP assay, Gi activation by Y4 agonism)
# Assay type: cell-based
# condition_description: human Y4 receptor, cAMP; read-out: hY4 CAMP EC50
quantity_measured: pEC50
Notebook: values listed as pEC50 are -log10 of the concentration (mol/L).

Example cases with answers are listed next.
>>> df
                                smiles_text                             tested_system  value_observed
0  NC(=O)c1cccc(-c2cnc(N[C@@H]3CCCC[C@H]3N[C@H]3CCCN(c4ccc(-n5cncn5)cc4)C3)o2)c1  human Y4 receptor (Homo sapiens, UniProt P50391)            7.00
1  NC(=O)c1cccc(-c2cnc(N[C@@H]3CCCC[C@H]3N[C@H]3CCCN(c4ccc(OC(F)(F)F)cc4)C3)o2)c1  human Y4 receptor (Homo sapiens, UniProt P50391)            9.00

Look at this compound and give its reported pEC50. "Cc1nc(-c2ccc(N3CCC[C@H](N[C@@H]4CCCC[C@H]4Nc4cc(-c5ccc(F)cc5F)ccn4)C3)cc2)no1"
7.96

Look at this compound and give its reported pEC50. "Cc1noc(-c2ccc(N3CCC[C@H](N[C@@H]4CCCC[C@H]4Nc4ncc(-c5ccc(OC(F)(F)F)cc5)o4)C3)cc2)n1"
6.65

Look at this compound and give its reported pEC50. "C[C@]1(N[C@@H]2CCCC[C@H]2Nc2cc(-c3cccc(C(N)=O)c3)ccn2)CCCN(c2cnc(C(F)(F)F)cn2)C1"
6.85

Look at this compound and give its reported pEC50. "Cc1nc2ccc(N3CCC[C@H](N[C@@H]4CCCC[C@H]4Nc4ncc(-c5cc(F)c(F)c(F)c5)o4)C3)cn2n1"
7.20

----------
# tested_system: human Y4 receptor (Homo sapiens, UniProt P50391)
# Construct: expressed in transfected cells
# test_protocol: NPY4 cAMP HTRF Agonist Assay (inhibitory cAMP assay, Gi activation by Y4 agonism)
# Format: cell-based
# condition_description: second TABLE 1, R2 is Phenyl-CF3; read-out: hY4 CAMP EC50
As shown below, each of these compounds has a reported EC50 value.
Answer format: numeric, µM implied, no suffix.

Example cases with answers are listed next.
>>> df
                                   compound  value_observed
0  CC(=O)NCc1cccc(-c2ccnc(N[C@@H]3CCCC[C@H]3N[C@H]3CCCN(c4ccc(C(F)(F)F)cc4)C3)c2)c1           0.001
1  FC(F)(F)Oc1ccccc1-c1cnc(N[C@@H]2CCCC[C@H]2N[C@H]2CCCN(c3ccc(C(F)(F)F)cc3)C2)o1           0.012
2  FC(F)(F)Oc1ccc(-c2cnc(N[C@@H]3CCCC[C@H]3N[C@H]3C[C@@H]4C[C@H]3N(c3ccc(C(F)(F)F)cc3)C4)o2)cc1           0.126
3  C[C@H](O)c1cccc(-c2ccnc(N[C@@H]3CCCC[C@H]3N[C@H]3CCCN(c4ccc(C(F)(F)F)cc4)C3)c2)c1           0.006
4  OCCCc1cccc(-c2ccnc(N[C@@H]3CCCC[C@H]3N[C@H]3CCCN(c4ccc(C(F)(F)F)cc4)C3)c2)c1           0.031

Look at this compound and give its reported EC50. "CCCNC(=O)c1cccc(-c2ccnc(N[C@@H]3CCCC[C@H]3N[C@H]3CCCN(c4ccc(C(F)(F)F)cc4)C3)c2)c1"
0.029

Look at this compound and give its reported EC50. "CC(C)(O)Cc1cccc(-c2ccnc(N[C@@H]3CCCC[C@H]3N[C@H]3CCCN(c4ccc(C(F)(F)F)cc4)C3)c2)c1"
0.027

Look at this compound and give its reported EC50. "NCc1cccc(-c2ccnc(N[C@@H]3CCCC[C@H]3N[C@H]3CCCN(c4ccc(C(F)(F)F)cc4)C3)c2)c1"
0.079

Look at this compound and give its reported EC50. "COC(=O)c1cccc(-c2cnc(N[C@@H]3CCCC[C@H]3N[C@H]3CCCN(c4ccc(C(F)(F)F)cc4)C3)o2)c1"
0.067

Look at this compound and give its reported EC50. "FC(F)(F)c1ccc(N2CCC[C@H](N[C@@H]3CCCC[C@H]3Nc3ncc(-c4ccccc4)cn3)C2)cc1"
0.579

Look at this compound and give its reported EC50. "CC(C)OC(=O)Nc1cccc(-c2ccnc(N[C@@H]3CCCC[C@H]3N[C@H]3CCCN(c4ccc(C(F)(F)F)cc4)C3)c2)c1"
0.013

Look at this compound and give its reported EC50. "OCc1cc(-c2ccnc(N[C@@H]3CCCC[C@H]3N[C@H]3CCCN(c4ccc(C(F)(F)F)cc4)C3)c2)ccc1F"
0.038

Look at this compound and give its reported EC50. FC(F)(F)c1ccc(N2CCC[C@H](N[C@@H]3CCCC[C@H]3NC3=NOC(c4ccccc4)C3)C2)cc1 (stereo partly shown)
0.054

----------
# tested_system: human Y4 receptor (Homo sapiens)
# Construct: expressed in transfected cells
# test_protocol: NPY4 cAMP HTRF Agonist Assay (inhibitory cAMP assay, Gi activation by Y4 agonism)
# Type: cell-based
# condition_description: TABLE 5, R2 is Pyridinyl-CF3; read-out: hY4 CAMP EC50
As shown below, each of these molecules has a reported log10(EC50) value.
Use the decimal logarithm of EC50 (nM).

Example cases with answers are listed next.
>>> df
                                smiles_text  quantity_measured  value_observed
0  FC(F)(F)Oc1ccc(-c2cnc(N[C@@H]3CCCC[C@H]3N[C@H]3CCCN(c4ccnc(C(F)(F)F)c4)C3)o2)cc1        log10(EC50)            2.33
1  C[C@]1(N[C@@H]2CCCC[C@H]2Nc2cc(-c3cccc(C(N)=O)c3)ccn2)CCCN(c2ccc(C(F)(F)F)cn2)C1        log10(EC50)            1.38
2  C[C@]1(N[C@@H]2CCCC[C@H]2Nc2cc(-c3cccc(C(N)=O)c3)ccn2)CCCN(c2ccc(C(F)(F)F)nc2)C1        log10(EC50)            1.23
3  C[C@]1(N[C@@H]2CCCC[C@H]2Nc2ncc(-c3cccc(C(N)=O)c3)o2)CCCN(c2ccc(C(F)(F)F)nc2)C1        log10(EC50)            0.30

Look at this molecule and give its reported log10(EC50). "O=C(O)c1cccc(-c2cnc(N[C@@H]3CCCC[C@H]3N[C@H]3CCCN(c4ccc(C(F)(F)F)nc4)C3)o2)c1"
1.72

Look at this molecule and give its reported log10(EC50). "NC(=O)c1cccc(-c2ccnc(N[C@@H]3CCCC[C@H]3N[C@H]3CCCN(c4ccc(C(F)(F)F)cn4)C3)c2)c1"
1.00

----------
As shown below, each of these molecules has a reported EC50 value.
# tested_system: human Y4 receptor (Homo sapiens, UniProt P50391)
# Construct: expressed in transfected cells
# test_protocol: NPY4 cAMP HTRF Agonist Assay (inhibitory cAMP assay, Gi activation by Y4 agonism)
# Type: cell-based
# condition_description: TABLE 2, R2 is Phenyl-CN; read-out: hY4 CAMP EC50
Answer format: numeric, µM implied, no suffix.

Example cases with answers are listed next.
                                smiles_text  quantity_measured  value_observed
0  N#Cc1ccc(N2CCC[C@H](N[C@@H]3CCCC[C@H]3Nc3cc(-c4cnc5ccccc5c4)ccn3)C2)cc1               EC50           0.478
1  CC(=O)Nc1cc(-c2ccnc(N[C@@H]3CCCC[C@H]3N[C@H]3CCCN(c4ccc(C#N)cc4)C3)c2)ccn1               EC50           0.008
2  N#Cc1ccc(N2CCC[C@H](N[C@@H]3CCCC[C@H]3Nc3cc(Cc4ccccc4)ccn3)C2)cc1               EC50           0.299

// below: EC50 requested for another molecule
Look at this molecule and give its reported EC50. "CS(=O)(=O)c1ccc(-c2ccnc(N[C@@H]3CCCC[C@H]3N[C@H]3CCCN(c4ccc(C#N)cc4)C3)c2)cc1"
0.922
